Listed here: compounds with reported GI50 for HCT-15.

Reference set, count: 6
{"COMPOUND": "CC(C)(O)C(O)COc1c2c(cc3oc(=O)ccc13)OCO2 (centres undefined)", "GI50": "> 100 µM"}
{"COMPOUND": "O=C1[C@@H]2C(c3cccc([N+](=O)[O-])c3)=NO[C@@H]2C(=O)N1c1ccc(Cc2ccc(N3C(=O)[C@H]4C(c5cccc([N+](=O)[O-])c5)=NO[C@H]4C3=O)cc2)cc1", "GI50": "> 100 µM"}
{"COMPOUND": "C=C1CC(C)(c2cccc(Nc3nc4ccccc4c4occc34)c2)OC1=O (centres undefined)", "GI50": "3.52 µM"}
{"COMPOUND": "Cc1ccc(C2=CC(=O)/C(=C\\C(=O)c3ccc(Br)cc3)O2)c(C)c1", "GI50": "12.2 µM"}
{"COMPOUND": "CC(=O)OCC1OC(n2c(Br)nc3c2c(=O)n(C)c(=O)n3C)C(OC(C)=O)C1OC(C)=O (centres undefined)", "GI50": "> 100 µM"}
{"COMPOUND": "CC(C)c1cc(Cl)nc(Cl)n1", "GI50": "> 100 µM"}

Now look at this one.
Qu. Test system HCT-15; read-out GI50; what value for NCCCN(CCCCN(CCCN)Cc1ccccc1)Cc1ccccc1 ?
Ans. > 100 µM

---

Tested on: DMS-273
PROTOCOL: NCI tumour cell line growth inhibition, 48 h
Activity calls are given as the source filed them. Cut-off read from the data, not from the text of the source: active = GI50 up to about 1.1 µM and inactive = higher.
Use one of these outcomes when replying: active, inactive

{"MOLECULE": "c1ccc2c(c1)N=C(c1cccc3ccccc13)CC(c1cccc3ccccc13)S2 (configuration not stated)", "LABEL_CLASS": "inactive"}
{"MOLECULE": "COP(=O)(OC)C(NC(=O)C(F)(F)F)(c1ccccc1)C(F)(F)F (configuration not stated)", "LABEL_CLASS": "inactive"}
{"MOLECULE": "Cc1ccc(NC(=O)OCC(COc2ccc(Cl)cc2Cl)OC(=O)Nc2ccc(C)cc2)cc1 (configuration not stated)", "LABEL_CLASS": "inactive"}
{"MOLECULE": "O=C1NC2C3CC(OCc4ccccc4)(OCc4ccccc4)C2OC3O1 (configuration not stated)", "LABEL_CLASS": "inactive"}

Qu. What classification did N#C/C(=C1\SCC(=O)N1c1ccccc1)c1nc2ccccc2[nH]1 end up with in this test?
Ans. inactive

Qu. Given Nc1n/c(=N\c2ccccc2)ss1 , state the outcome it received in this test.
Ans. inactive

Qu. # lookup: test call for CN(C)CCCN1CCc2c([nH]c3ccccc23)C1c1cccnc1 (configuration not stated)
Ans. inactive

Qu. What did this assay record as the result for CCC(C)OC(=O)C1C2CCC(O2)C1C(=O)O (configuration not stated) ?
Ans. inactive

Qu. Identify the outcome logged in this assay for the molecule shown: CCN1CCCC(NCc2c3ccccc3c(CNC3CCCN(CC)C3)c3ccccc23)C1 (configuration not stated)
Ans. inactive

Qu. Record lookup: outcome of this test for CC(NS(=O)(=O)c1ccc([N+](=O)[O-])cc1)C(=O)O (configuration not stated) ?
Ans. inactive

---

Tested on: M19-MEL
PROTOCOL: NCI tumour cell line growth inhibition, 48 h
The source made the active and inactive calls. No stated cut-off is given here; in the data, active = GI50 up to about 1.1 µM and inactive = higher.
Property: GI50; scope: individual compounds

Qu. Fill in the blank: the reported GI50 of Cc1ccc(C2COc3cc(O)c(O)cc3C2)cc1 (stereo unspecified) is ____.
Ans. 19 µM (inactive)

Qu. Using the record for Cc1cc(C)nc(NS(=O)(=O)c2ccc(NC(=O)c3cccn4c(=O)c5ccccc5nc34)cc2)n1 , report its GI50.
Ans. 31.6 µM (inactive)

Qu. Recorded GI50 for O=C(c1cccc2ccccc12)N1CCC(C2CCN(C(=O)c3cccc4ccccc34)CC2)CC1 , please?
Ans. > 100 µM (inactive)

---

Test system: KM12
PROTOCOL: NCI tumour cell line growth inhibition, 48 h
Activity calls are given as the source filed them. No stated cut-off is given here; in the data, active = GI50 up to about 1.1 µM and inactive = higher. Non-standard residues stand in square brackets, D forms with d. Residues, ends and D or L forms follow the SMILES beside them. ξ: configuration not given here. ξLac(3-iPr) = CC(C)CC(O)C(=O)O; NMeV = CN[CH](C(=O)O)C(C)C; NMeA = CN[CH](C)C(=O)O; βAla = NCCC(=O)O
Entry note: the call must match one of active, inactive

{"COMPOUND": "O=c1c(-c2ccccc2Cl)coc2cc(F)ccc12", "LABEL_CLASS": "inactive"}
{"COMPOUND": "CCC(C)C1NC(=O)C2CCCN2C(=O)C(CC(C)C)OC(=O)CCNC(=O)C(C)N(C)C(=O)C(C(C)C)N(C)C1=O (configuration not stated) (cyclo([ξLac(3-iPr)]PI[NMeV][NMeA][βAla]); configuration not given here)", "LABEL_CLASS": "inactive"}
{"COMPOUND": "O=C1Nc2cccc(Cl)c2/C1=C\\c1c(Cl)nc2sccn12", "LABEL_CLASS": "inactive"}
{"COMPOUND": "Clc1ccc(C2ON=C(c3ccccc3)N2C23CC4CC(CC(C4)C2)C3)cc1Cl (configuration not stated)", "LABEL_CLASS": "inactive"}
{"COMPOUND": "C=C(CN(C)C)C(=O)c1ccccc1Cl", "LABEL_CLASS": "inactive"}
{"COMPOUND": "CCc1ccc2c(c1)/C(=C1/Nc3ccccc3/C1=N/O)C(=O)N2", "LABEL_CLASS": "active"}
{"COMPOUND": "Cc1ccc(/C=C/C(=O)c2cccc3ccccc23)cc1", "LABEL_CLASS": "inactive"}
{"COMPOUND": "Nc1n/c(=N\\c2ccccc2)ss1", "LABEL_CLASS": "inactive"}

Qu. Call for entry C/C(=N\NC(=S)N(C)C)c1ccccn1 :
Ans. active

Qu. What call does the record list for Nc1csc(-c2scc3c2OCCO3)c1N ?
Ans. inactive

Qu. Lab log entry: O=C(/C=C/c1ccc(O)c(O)c1)Oc1ccccc1 — outcome as called in the assay?
Ans. inactive

Qu. Hi, sorry to bother you, what did the test record for Cc1ccc(S(=O)(=O)NC(=N)N(C)N=O)cc1 ?
Ans. inactive

Qu. Hello, I am checking results. What call was entered for CC(O)C(O)C(O)C(/C=N\Nc1ccccc1)=N/Nc1ccccc1 (configuration not stated) ?
Ans. inactive

---

System: U-251
PROTOCOL: NCI tumour cell line growth inhibition, 48 h
Active and inactive are the calls of the source. Rule as the data show it: active = GI50 up to about 1.1 µM and inactive = higher.
OBSERVATION_TYPE: GI50

Qu. For the molecule CN(C(=O)C12C3C4C5C3C1(C(=O)C13C6C7C8C6C1C8C73)C5C42)C(C)(C)C (centres undefined) , what GI50 is on record?
Ans. > 50 µM (inactive)

---

System: HCC 2998
PROTOCOL: NCI tumour cell line growth inhibition, 48 h
Activity calls are given as the source filed them. Cut-off read from the data, not from the text of the source: active = GI50 up to about 1.1 µM and inactive = higher.
Returns: one label drawn from active, inactive

Illustrative cases are given below, each with its answer.
{"COMPOUND": "Cc1cccc2c(=O)c3cccc(CC(=O)O)c3oc12", "EXPERIMENTAL_SYSTEM": "HCC 2998", "LABEL_CLASS": "inactive"}
{"COMPOUND": "CN(C(=O)C12C3C4C5C3C1(C(=O)C13C6C7C8C6C1C8C73)C5C42)C(C)(C)C (stereo unspecified)", "EXPERIMENTAL_SYSTEM": "HCC 2998", "LABEL_CLASS": "inactive"}
{"COMPOUND": "CCOC(=O)NC(Nc1ccc(S(=O)(=O)Nc2nc(C)cc(C)n2)cc1)(C(=O)OCC)C(F)(F)F (stereo unspecified)", "EXPERIMENTAL_SYSTEM": "HCC 2998", "LABEL_CLASS": "inactive"}
{"COMPOUND": "CNC(=O)O/N=C1\\N(C)CN(c2ccccc2)C12CCN(CCCC(=O)c1ccc(F)cc1)CC2", "EXPERIMENTAL_SYSTEM": "HCC 2998", "LABEL_CLASS": "inactive"}
{"COMPOUND": "COC(=O)/C=C\\C(C#N)(C#N)/N=C/c1cccc(OC)c1", "EXPERIMENTAL_SYSTEM": "HCC 2998", "LABEL_CLASS": "inactive"}

Qu. Field: outcome | Entry: CC(/C=N\NC(=S)N(C)C)=N/NC(=S)N(C)C
Ans. inactive

Qu. Could you kindly confirm the outcome this assay logged for COC(=O)C1=C(C)C=C(N2CCOCC2)C(C(=O)OC)C1c1ccccc1 (stereo unspecified) ?
Ans. inactive

Qu. Kindly provide the recorded test outcome for the following compound: CCOC(=O)c1[nH]c2c(OC)n[n+]([O-])cc2c1[N+](=O)[O-]
Ans. inactive

Qu. # outcome recorded in this test, key = O=C(CCC(=O)CC(O)(C(F)(F)F)C(F)(F)F)CC(O)(C(F)(F)F)C(F)(F)F
Ans. inactive

Qu. Just curious, what result did COC(=O)CC1C(=O)OCc2c1cc1n(c2=O)Cc2c-1nc1ccccc1c2OC (stereo unspecified) get here?
Ans. inactive

Qu. How did this test come out for CC(C)(C)CC(C)(C)NCC(O)COc1ccc(C(C)(C)c2ccc(OCC(O)CNC(C)(C)CC(C)(C)C)cc2)cc1 (stereo unspecified) ?
Ans. active

Qu. What did the test return for Cc1ccc(/C=N/NS(=O)(=O)c2ccccc2)cc1C ?
Ans. inactive

Qu. What was the test verdict on N/N=C(\c1nc2ccc([N+](=O)[O-])cc2nc1O)C(O)c1ccc(Cl)c(Cl)c1 (stereo unspecified) ?
Ans. inactive

Qu. Hello, I am checking results. What call was entered for CC1Cc2cc(O)c(O)cc2-c2cc(O)c(O)cc2CC1C (stereo unspecified) ?
Ans. inactive

Qu. What classification did COP(=O)(OC)C(NC(=O)C(F)(F)F)(c1ccccc1)C(F)(F)F (stereo unspecified) end up with in this test?
Ans. inactive

Qu. Identify the outcome logged in this assay for the compound shown: CCOC(=O)c1cc(-n2nnc3ccccc32)cn1C
Ans. inactive

Qu. Hi team, can someone confirm the assay call for CCOC(=O)CC(=O)Sc1ccccc1 ?
Ans. inactive

Qu. For O=C(Nc1ccccc1-c1nn(C(=S)Nc2ccccc2)c(=S)n(C(=S)Nc2ccccc2)c1=O)C(F)(F)F , which call appears in the assay record?
Ans. inactive

Qu. Could you check what this test reported for C[C@@]12C[C@@H](c3ccccc3O1)N1CCSC1=N2 ?
Ans. inactive

Qu. Which outcome was assigned to COc1ccccc1NC(=O)CC(=O)n1nc(C)c(/N=N/c2ccccc2C(=O)O)c1C in this test?
Ans. inactive

Qu. Dear all, I need the recorded test outcome for O=C1CC(O)C=C1Nc1ccc(Cl)cc1 (stereo unspecified) , thank you.
Ans. inactive

Reference source for all entries: ChEMBL document CHEMBL1201862
